- tested-on: ΔF508-CFTR (Homo sapiens, UniProt P13569, DEL508-508)
- Construct: host or cells: CFBE41o-, doxycycline-inducible
- Sequence (P13569 with tags, fused parts or gaps DEL508-508): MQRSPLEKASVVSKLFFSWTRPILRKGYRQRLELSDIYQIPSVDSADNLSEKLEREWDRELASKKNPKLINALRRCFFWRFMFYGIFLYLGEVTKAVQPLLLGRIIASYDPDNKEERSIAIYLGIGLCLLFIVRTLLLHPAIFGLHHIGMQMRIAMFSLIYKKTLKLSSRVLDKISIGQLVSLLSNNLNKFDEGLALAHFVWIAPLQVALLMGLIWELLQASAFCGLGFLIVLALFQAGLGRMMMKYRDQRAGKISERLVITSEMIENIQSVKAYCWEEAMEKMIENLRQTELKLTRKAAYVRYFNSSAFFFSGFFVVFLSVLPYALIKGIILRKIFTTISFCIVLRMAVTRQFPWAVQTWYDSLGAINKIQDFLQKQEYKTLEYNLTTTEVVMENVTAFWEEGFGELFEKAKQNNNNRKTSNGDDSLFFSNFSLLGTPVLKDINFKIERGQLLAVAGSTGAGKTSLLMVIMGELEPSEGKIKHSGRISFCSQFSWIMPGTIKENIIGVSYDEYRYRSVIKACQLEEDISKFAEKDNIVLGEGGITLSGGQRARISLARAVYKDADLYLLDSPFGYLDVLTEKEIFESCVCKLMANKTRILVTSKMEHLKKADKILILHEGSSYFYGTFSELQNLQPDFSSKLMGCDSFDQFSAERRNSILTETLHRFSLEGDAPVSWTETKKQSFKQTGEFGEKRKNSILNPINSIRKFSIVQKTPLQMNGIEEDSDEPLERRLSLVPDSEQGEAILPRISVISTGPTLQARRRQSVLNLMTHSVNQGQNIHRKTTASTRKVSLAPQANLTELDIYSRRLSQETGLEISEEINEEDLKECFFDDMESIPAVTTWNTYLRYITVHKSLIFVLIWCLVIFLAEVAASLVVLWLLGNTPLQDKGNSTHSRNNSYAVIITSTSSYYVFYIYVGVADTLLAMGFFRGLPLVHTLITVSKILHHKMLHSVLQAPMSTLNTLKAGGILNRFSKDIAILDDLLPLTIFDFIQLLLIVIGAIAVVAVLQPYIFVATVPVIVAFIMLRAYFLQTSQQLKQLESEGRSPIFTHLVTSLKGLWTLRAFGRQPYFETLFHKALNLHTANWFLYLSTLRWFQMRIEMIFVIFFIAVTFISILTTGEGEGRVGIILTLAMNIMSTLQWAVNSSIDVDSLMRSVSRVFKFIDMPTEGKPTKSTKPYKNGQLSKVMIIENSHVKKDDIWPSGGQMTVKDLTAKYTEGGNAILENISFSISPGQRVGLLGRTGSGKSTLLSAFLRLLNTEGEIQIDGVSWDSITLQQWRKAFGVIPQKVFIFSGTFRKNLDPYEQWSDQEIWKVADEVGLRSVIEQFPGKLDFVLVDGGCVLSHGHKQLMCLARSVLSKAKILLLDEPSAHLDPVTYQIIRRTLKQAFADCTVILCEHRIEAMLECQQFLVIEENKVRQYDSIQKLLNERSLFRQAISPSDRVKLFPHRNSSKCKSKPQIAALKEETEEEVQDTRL
- protocol: CFTR cell surface levels using HRP-tagged ΔF508-CFTR expressing CFBE cells, in the presence of a co-corrector
- Assay type: cell-based
- applied-conditions: HRP-tagged ΔF508-CFTR CFBE cells, in the presence of 3 μM co-corrector
Provide the recorded % Activation for the entries that follow.
Numbers only, in %.

Consider the reported % Activation for these molecules:
CN(C)S(=O)(=O)NC(=O)c1cc(N2CCC(N3CCOC(C)(C)C3)CC2)c2c(C3CCC3)nn(-c3ccc(F)cc3)c2n1    467.57
COC1(C)CCN(c2cc(C(=O)NS(C)(=O)=O)nc3c2c(C(C)C)nn3-c2ccc(F)cc2)CC1    183.2
COCCS(=O)(=O)NC(=O)c1cc(-c2ccc(OC)cc2)c2c(C)nn(C(C)C)c2n1    128.3
CCS(=O)(=O)NC(=O)c1cc(N2CCC(OC)CC2)c2c(C(C)C)nn(-c3cccc(C)c3)c2n1    469
CN(C)S(=O)(=O)NC(=O)c1cc(C2CCN(C3CCC(F)(F)CC3)CC2)c2c(C3CCC3)nn(-c3ccc(F)cc3)c2n1    308.05
CNS(=O)(=O)NC(=O)c1cc(N2CCC(N3CCC(F)CC3)CC2)c2c(C3CCC3)nn(-c3ccc(F)cc3)c2n1    592.45
CC(C)c1nn(-c2cccc(N(C)C)c2)c2nc(C(=O)NS(C)(=O)=O)cc(-c3cnc(N4CCC(C#N)CC4)nc3)c12    611.7
O=C(NS(=O)(=O)N1CCC(F)CC1)c1cc(N2CCC(N3CCOCC3)CC2)c2c(C3CCC3)nn(-c3ccccc3)c2n1    470.37

Can you give me % Activation for all of these, one by one?
1. CC(C)c1nn(-c2cccc(C(F)(F)F)c2)c2nc(C(=O)NS(C)(=O)=O)cc(-c3ccc(N4CCC(C#N)CC4)cc3)c12
2. COCC1CCN(c2cc(C(=O)NS(=O)(=O)N3CCC(N4CCOCC4)CC3)nc3c2c(C2CCC2)nn3-c2ccccc2)CC1
3. COCC1CN(c2cc(C(=O)NS(C)(=O)=O)nc3c2c(C2CCC2)nn3-c2ccccc2)C1
4. CCOC(=O)N1CCC(c2cc(C(=O)NS(C)(=O)=O)nc3c2c(C(C)C)nn3-c2ccc(F)cc2)CC1
5. COCC1CCN(S(=O)(=O)NC(=O)c2cc(N3CCC(N4CCOCC4)CC3)c3c(C4CCC4)nn(-c4ccc(F)cc4)c3n2)CC1
6. COC1CCN(C2CCN(c3cc(C(=O)NS(=O)(=O)N4CCOCC4)nc4c3c(C3CCC3)nn4-c3ccc(F)cc3)CC2)CC1

stdout:
512.9
381.8
341.37
374.65
443.3
337.07
